Experiment: NOVARTIS: Inhibition Frequency Index (IFI) - the number of HTS assays where a compound showed > 50% inhibition/induction, expressed as a percentage of the number of assays in which the compound was tested.
Format: functional
Whole data set: some 5,400 compounds, median “IFI” near 2, cut for the highest 2% near 22. Shown is part of a subset that was picked to be rich in the highest values.
Observation Type: IFI (%)
# value in %; strip the unit string

Quick one: IFI for `C[C@@H]1C[C@H]2CC[C@H](O2)[C@H](C)C(=O)O[C@@H](C)C[C@@H]2CC[C@@H](O2)[C@@H](C)C(=O)O[C@H](C)C[C@H]2CC[C@@H](O2)[C@H](C)C(=O)O[C@@H](C)C[C@@H]2CC[C@@H](O2)[C@@H](C)C(=O)O1` ?
12.5

Next entry: CCCCCCCc1cc(O)c2c3c(c(=O)oc2c1)CCC(C)C3 (stereo not drawn)
0

Turning now to a further record.
Quick one: IFI for CC1CC2CCC(O2)C(C)C(=O)O[C@H](C)CC2CCC(O2)C(C)C(=O)OC(C)CC2CCC(O2)C(C)C(=O)O[C@H](C)CC2CCC(O2)C(C)C(=O)O1 (stereo partly drawn) ?
19.2

====

Assay: NOVARTIS: Inhibition Frequency Index (IFI) - the number of HTS assays where a compound showed > 50% inhibition/induction, expressed as a percentage of the number of assays in which the compound was tested.
Type: functional
In all, about 5,400 compounds were measured (“IFI”: median about 2, highest 2% from about 22 on). The full list was thinned out, with the highest values kept by preference.
Observation Type: IFI (%)
# value in %; strip the unit string

For orientation, consider the following solved cases.
Quick one: IFI for `CCOc1ccc2nccc([C@@H](O)[C@@H]3C[C@@H]4CCN3C[C@@H]4CC)c2c1` ?
3.82

Next entry: `CCCCCc1cc(O)c2c3c(c(=O)oc2c1)CN(C)CC3`
2.29

Next entry: Cc1onc(O)c1CC(N)C(=O)O (stereo unspecified)
0

Next:
Quick one: IFI for C=C1[C@@H](C)[C@H]2[C@H](Cc3ccccc3)NC(=O)[C@]23C(OC(C)=O)C=C[C@@](C)(O)C(=O)[C@@H](C)CC=C[C@H]3[C@@H]1O (stereo partly specified) ?
6.9

Next entry: C=CC1CN2CCC1CC2[C@@H](OC(=O)c1ccc(C(C)(C)C)cc1)c1ccnc2ccc(OC)cc12 (stereo partly specified)
0

Next entry: C/C(=C\c1csc(C)n1)[C@@H]1C[C@@H]2O[C@@H]2CCC[C@H](C)C(O)[C@@H](C)C(=O)C(C)(C)[C@@H](O)CC(=O)O1 (stereo partly specified)
6.9

Next entry: `C[n+]1c2n(c3ccccc31)N=C(c1ccccc1)C[Se]2`
3.7

Next entry: CNCC(O)c1ccc(Cl)c(Cl)c1 (stereo unspecified)
0

Next entry: CC[C@@]1(O)C[C@H](O[C@@H]2CC(N(C)C)[C@@H](O[C@@H]3C[C@@H](O)[C@@H](O[C@@H]4CCC(=O)[C@@H](C)O4)C(C)O3)[C@@H](C)O2)c2c(cc3c(c2O)C(=O)c2c(O)ccc(O)c2C3=O)[C@H]1C(=O)OC (stereo partly specified)
21.4

====

Assay: NOVARTIS: Inhibition Frequency Index (IFI) - the number of HTS assays where a compound showed > 50% inhibition/induction, expressed as a percentage of the number of assays in which the compound was tested.
Assay type: functional
The full ranking holds about 5,400 compounds; the median of “IFI” is about 2, and the highest 2% start at about 22. Only a selection was taken, and the highest values are over-represented in it overall.
Observation Type: IFI
The reply must contain the numeric value and, after it, the unit.

For orientation, consider the following solved cases.
Quick one: IFI for `C=C[C@H]1CN2CC[C@H]1C[C@@H]2[C@@H](OC(=O)C(C)C)c1ccnc2ccccc12` ?
1.67%

Next entry: `COc1ccccc1N1CCN(Cc2cc(C)c(C)cc2O)CC1`
2.94%

Next:
Quick one: IFI for CC(Cc1ccccc1)NCc1ccccc1O (stereo not drawn) ?
3.12%

Next entry: `COc1ccccc1-n1c(/C=C/c2cc(Br)ccc2O)nc2ccccc2c1=O`
8.06%

Next entry: `CO[C@H]1[C@H](C)[C@@H]([C@H]2CC[C@H]([C@@H]3CC[C@H]([C@@]4(C)O[C@]5(O[C@H](C[C@@H]6O[C@](O)([C@@H](C)C(=O)O)[C@@H](C)[C@H](O[C@H]7CC[C@H](OC)[C@@H](C)O7)[C@@]6(C)OC)C[C@@H](OC)[C@H]5C)[C@H](C)[C@H]4OC)O3)O2)O[C@](C)(O)[C@@H]1C`
15.5%

Next entry: Cc1ccc(CN2C3CCCC2CC(NC(=O)Nc2cccc(F)c2)C3)cc1 (stereo not drawn)
1.32%

Next entry: `O=C(NNC(=O)c1csnn1)c1ccc(C(F)(F)F)cc1`
3%

Next entry: `CC(C)N1CC=C(c2c[nH]c3ccccc23)CC1`
0%

====

IFI for assorted compounds
Test: NOVARTIS: Inhibition Frequency Index (IFI) - the number of HTS assays where a compound showed > 50% inhibition/induction, expressed as a percentage of the number of assays in which the compound was tested.
Format: functional
In all, about 5,400 compounds were measured (“IFI”: median about 2, highest 2% from about 22 on). Many of the other results were omitted from the sample, so the highest values are more common in it than they were.
The reply must contain the numeric value and, after it, the unit.

Quick one: IFI for `CCn1nc(/C=C/c2ccccc2)nc2c(=O)n(C)c(=O)nc1-2` ?
16.7%

Next entry: C=CC1CN2CCC1CC2[C@H](c1ccnc2ccccc12)S(=O)(=O)O (some centres undefined)
0%

Next entry: `Cc1nc2c(=O)n(C)c(=O)nc-2n(C)n1`
25%

Next entry: `Cc1nc(Oc2ccc3ccc(=O)oc3c2)c2c3c(sc2n1)CCCCC3`
0%

Next entry: `CS/C(Cl)=C(/NC(C)=O)[P+](c1ccccc1)(c1ccccc1)c1ccccc1`
5.34%

Next:
Quick one: IFI for CCC1CC2CCC(O2)C(C)C(=O)OC(C)CC2CCC(O2)C(C)C(=O)OC(CC)CC2CCC(O2)C(C)C(=O)OC(C)CC2CCC(O2)C(C)C(=O)O1 (centres undefined) ?
24.1%

Next entry: `CC(C)[C@@]1(NC(=O)[C@@H]2C[C@@H]3c4cccc5[nH]cc(c45)C[C@H]3N(C)C2)O[C@@]2(O)[C@@H]3CCCN3C(=O)[C@H](CC3CCCCC3)N2C1=O`
9.52%

Next entry: CO/C(=C\C(N)=O)C(C)C(/C=C/c1csc(-c2csc(C(C)/C=C/C=C/C(C)C)n2)n1)OC (centres undefined)
11.5%

Next entry: `Cc1cc(N(C)C)cc(C)[n+]1OC(=O)N(c1ccccc1)c1ccccc1`
16.7%

====

Assay: NOVARTIS: Inhibition Frequency Index (IFI) - the number of HTS assays where a compound showed > 50% inhibition/induction, expressed as a percentage of the number of assays in which the compound was tested.
Type: functional
The full ranking holds about 5,400 compounds; the median of “IFI” is about 2, and the highest 2% start at about 22. The full list was thinned out, with the highest values kept by preference.
Observation Type: IFI (%)
# value in %; strip the unit string

For orientation, consider the following solved cases.
Quick one: IFI for COc1cc2c3cc1Oc1c(OC)c(OC)cc4c1C(Cc1ccc(O)c(c1)Oc1ccc(cc1)CC3N(C)CC2)N(C)CC4 (stereo not drawn) ?
7.14

Next entry: `Cn1ccnc1C(=O)NNc1ncc(C(F)(F)F)cc1Cl`
13.3

Next entry: COc1ccc(C(Cc2ccccc2)NC2CN3CCC2CC3)cc1 (stereo not drawn)
0

Next entry: `C=C[C@H]1CN2CC[C@H]1C[C@H]2[C@H](OC(=O)c1cccc([N+](=O)[O-])c1)c1ccnc2ccccc12`
0.926

Next entry: `COc1cc2c3c(c4cc(OC)c(OC)cc4c2cc1OC)CN1CCC[C@@H]1C3`
5.26

Next:
Quick one: IFI for CC1OC(=O)C(C(C)C)NC(=O)C(C(C)C)OC(=O)C(C(C)C)NC(=O)C(C)OC(=O)C(C(C)C)NC(=O)C(C(C)C)OC(=O)C(C(C)C)NC(=O)C(C)OC(=O)C(C(C)C)NC(=O)C(C(C)C)OC(=O)C(C(C)C)NC1=O (stereo not drawn) ?
27.7

Next entry: COc1ccc2c(c1)CC1c3c(cc4c(c3-2)OCO4)CCN1C (stereo not drawn)
25

Next entry: `CN1CCN(c2nc(Cl)nc3[nH]cnc23)CC1`
0.699

Next entry: CCC(=O)OC(C(C)C(=O)O)C(C)C1OC2(CCC(C)(C3CCC(C)(C4OC(C5OC(O)(CO)C(C)CC5C)CC4C)O3)O2)CC(O)C1C (stereo not drawn)
8.62

Next entry: `COc1ccc(C=NNc2ccnc3cc(Cl)ccc23)cc1`
4.8

Next entry: `Oc1ccccc1C=Nc1ccccc1[Te]c1ccccc1N=Cc1ccccc1O`
8.21
